# Test system: SK-MEL-2
# ASSAY NAME: NCI tumour cell line growth inhibition, 48 h
Activity calls are given as the source filed them. No stated cut-off is given here; in the data, active = GI50 up to about 1.1 µM and inactive = higher.
MEASURED METRIC: GI50

Notebook: pull reported GI50 for SK-MEL-2, entry `COc1ccc(C(=O)NCCN(C)C)c2nc3ccccc3nc12`
4.01 µM (inactive)

Notebook: pull reported GI50 for SK-MEL-2, entry `COC(=O)c1cc(NC(=O)c2cc(NC(=O)Cc3c[nH]c4ccccc34)cn2C)cn1C`
19.6 µM (inactive)

Notebook: pull reported GI50 for SK-MEL-2, entry `c1ccc2c(c1)ccc1ncccc12`
> 100 µM (inactive)

Notebook: pull reported GI50 for SK-MEL-2, entry `Cc1cccc(-c2cc(O)c3cc(C)cnc3n2)c1`
0.224 µM (active)

Notebook: pull reported GI50 for SK-MEL-2, entry `Cc1cc(N(CCC#N)CCC#N)ccc1/C=C/C(=O)Nc1ccccc1Cl`
> 100 µM (inactive)

Notebook: pull reported GI50 for SK-MEL-2, entry Cc1ccc(C2C(C(=O)C(C)(C)C)N2S(=O)(=O)c2ccc(C)cc2)cc1 (centres undefined)
46.6 µM (inactive)

Notebook: pull reported GI50 for SK-MEL-2, entry `CN(C)C(=N)c1ccccc1`
> 100 µM (inactive)

Notebook: pull reported GI50 for SK-MEL-2, entry `CC(CO)(CO)Nc1ncnc2ccccc12`
> 100 µM (inactive)

---

GI50 listing for selected compounds.
# Test system: UACC-62
# ASSAY NAME: NCI tumour cell line growth inhibition, 48 h
Active and inactive are the calls of the source. Cut-off read from the data, not from the text of the source: active = GI50 up to about 1.1 µM and inactive = higher.

Consider the following illustrative entries.
CC1(C)C(CCO)CC1n1ccc(=O)[nH]c1=O (stereo unspecified) :: > 100 µM (inactive)
Cc1ccc(C2C(C(=O)C(C)(C)C)N2S(=O)(=O)c2ccc(C)cc2)cc1 (stereo unspecified) :: 15.8 µM (inactive)
Cc1ccc(/N=C2\OP(=O)(Nc3ccc(C)cc3)Oc3ccccc32)cc1 (stereo unspecified) :: > 100 µM (inactive)
C=CC1(C)OC2(CCN(C(=O)OCC)CC2)OC1C (stereo unspecified) :: > 100 µM (inactive)
CN1C(=O)C2C3C=C4c5ccccc5N(c5ccccc5)C4(C2C1=O)[C@H]1C(=O)N(C)C(=O)[C@@H]31 (stereo partly specified) :: > 100 µM (inactive)

Notebook: pull reported GI50 for UACC-62, entry N#CC(/N=N/c1ccccc1)c1nc2ccccc2o1 (stereo unspecified)
37.7 µM (inactive)

---

# System: HCT-15
GI50 listing for selected molecules.
Reply numerically in µM, unit not repeated.

Consider the following illustrative entries.
COc1cc(CC2c3cc(OC)c(OC)cc3CCN2C)c(Oc2cc3c(cc2OC)-c2c(OC)c(OC)c(OC)c4c2C(C3)N(C)CC4)cc1OC (configuration not stated) :: 10.1
CN1C(=O)c2ccccc2OC12C=Cc1c(ccc3ccccc13)O2 (configuration not stated) :: 2.95

Form field: reported GI50 of `CCOC(=O)c1ccc(Nc2nc3ccc(C(F)(F)F)cc3nc2-c2ccccc2)cc1`
15.4

Form field: reported GI50 of `Cn1nc(-c2ccccc2)c(C(=O)/C=C/c2ccc(Cl)cc2)c(N2CCOCC2)c1=O`
2.74

Form field: reported GI50 of `COC(=O)/C=C(/C(=O)OC)c1cc2ccc3c([nH]c4ccccc43)c(C)c-2c1`
3.94

Form field: reported GI50 of CC(C)(C)C1CCC2c3c([nH]c4ccccc34)C3C(=O)N(c4cc(Br)cc(Br)c4)C(=O)C3C2C1 (configuration not stated)
25.4

---

GI50 listing for selected compounds.
# Test system: NCI-H460
# ASSAY NAME: NCI tumour cell line growth inhibition, 48 h
The source made the active and inactive calls. Cut-off read from the data, not from the text of the source: active = GI50 up to about 1.1 µM and inactive = higher.

Form field: reported GI50 of `CC(C)NC(=O)OCc1c(COC(=O)NC(C)C)c(-c2cc[n+](COC(=O)C3CC3)cc2)n2c1CCC2`
> 100 µM (inactive)

Form field: reported GI50 of `CCOC(=O)c1ccc(/N=c2/[nH]c3ccccc3s/c2=N/c2ccc(C(=O)OCC)cc2)cc1`
40.6 µM (inactive)

Form field: reported GI50 of CC(C)C1N(C)c2ccc(Cl)cc2[C@H]2c3ccccc3CCN12 (stereo partly specified)
94.8 µM (inactive)

Form field: reported GI50 of `COC(=O)c1cc(NC(=O)c2cc(NC(=O)Cc3c[nH]c4ccccc34)cn2C)cn1C`
30.5 µM (inactive)

Form field: reported GI50 of COCCN(C(C)=O)C1CCC2(SCCS2)c2[nH]c3ccccc3c21 (stereo unspecified)
77.6 µM (inactive)

Form field: reported GI50 of `O=C1C=C(O)C(=O)c2c(O)ccc(O)c21`
> 100 µM (inactive)

Form field: reported GI50 of `CCCCOCc1cc(CN2CCN(C)CC2)c(O)c2ncccc12`
7.46 µM (inactive)

Form field: reported GI50 of `Cc1ncc(CI)c(CI)c1O`
> 100 µM (inactive)

Form field: reported GI50 of NC(=O)C1CCCN1C(=O)C(Cc1c[nH]cn1)NC(=O)C1CCCC1 (stereo unspecified)
> 100 µM (inactive)

Form field: reported GI50 of `COc1ccc2c(c1)CC[C@@H]1[C@@H]2CC[C@]2(C)[C@@H](O)/C(=C/c3ccncc3)C[C@@H]12`
14.2 µM (inactive)

Form field: reported GI50 of C#CC1(O)CCC2C3CCc4cc(Oc5nc(F)nc(-c6c7ccccc7c7n6CCS7)n5)ccc4C3CC[C@@]21C (stereo partly specified)
35.4 µM (inactive)

Form field: reported GI50 of CCO[C@@H]1CCC([S+]([O-])c2ccc(C)cc2)=CO1 (stereo partly specified)
> 100 µM (inactive)

Form field: reported GI50 of `C[S+]=c1sc2ccccc2s1`
> 100 µM (inactive)

---

# System: SK-OV-3
# ASSAY NAME: NCI tumour cell line growth inhibition, 48 h
The source made the active and inactive calls. No stated cut-off is given here; in the data, active = GI50 up to about 1.1 µM and inactive = higher.
GI50 listing for selected molecules.

Consider the following illustrative entries.
Nc1ccn(CCOC(=O)c2ccccc2)c(=O)n1 :: > 100 µM (inactive)
O=[N+]([O-])c1nccn1CC(O)CN1CCCCC1 (centres undefined) :: > 100 µM (inactive)
O=C(c1cccs1)N(C(=S)N1CCN(c2ccccc2)CC1)C1CCCCC1 :: > 100 µM (inactive)
Cc1ccc(SC[C@@]2(C(F)F)NC(=O)NC2=O)cc1 :: > 100 µM (inactive)

Form field: reported GI50 of `O=C(C(=O)n1ccc2ccccc21)c1c[nH]c2ccccc12`
> 10 µM (inactive)

Form field: reported GI50 of Cc1ccc(C2C(C(=O)C(C)(C)C)N2S(=O)(=O)c2ccc(C)cc2)cc1 (centres undefined)
> 100 µM (inactive)

---

# Tested on: NCI-H226
# ASSAY NAME: NCI tumour cell line growth inhibition, 48 h
Calls of active or inactive are those of the source. No stated cut-off is given here; in the data, active = GI50 up to about 1.1 µM and inactive = higher.
GI50 listing for selected compounds.

Consider the following illustrative entries.
Cc1ccc(NC(=O)c2cc(S(=O)(=O)N3CCNNC3=O)c(S)cc2Cl)cc1 :: > 100 µM (inactive)
Nc1c(-c2nc3ccccc3[nH]2)sc(=S)n1-c1ccc(Cl)cc1 :: 26.5 µM (inactive)
O=C(O)CC[P+](c1ccccc1)(c1ccccc1)c1ccccc1 :: 53.5 µM (inactive)
COc1cc(C2SCC(=O)N2c2cc(Cl)c(Cl)cc2Cl)cc(OC)c1OC (stereo not drawn) :: 63.1 µM (inactive)

Form field: reported GI50 of `C[C@H]1C[C@H](C)c2ccccc2N(C)/C1=N\c1ccccc1`
24.5 µM (inactive)

Form field: reported GI50 of `CN(C)/C=N/c1ccc2nonc2c1`
> 100 µM (inactive)

Form field: reported GI50 of `Cc1cn([C@H]2CN(O)C[C@@H](CO)O2)c(=O)[nH]c1=O`
> 100 µM (inactive)

Form field: reported GI50 of `Nc1ccc2c(c1)C(=O)N1CCC[C@H]1C(=O)N2`
> 100 µM (inactive)

---

# Tested on: Hs-578T
# ASSAY NAME: NCI tumour cell line growth inhibition, 48 h
Calls of active or inactive are those of the source. Cut-off read from the data, not from the text of the source: active = GI50 up to about 1.1 µM and inactive = higher.
Your answer must be one of the following: yes (active), no (inactive)

Oc1c(C(Nc2ccccn2)c2ccccc2)ccc2cccnc12 (configuration not stated) :: no
CC(=O)OCC1OC(n2c(C#N)cc(=O)[nH]c2=O)CC1OC(C)=O (configuration not stated) :: no
Clc1cc2ccccc2c2ccccc12 :: no

Look up the recorded call for COC1/C=C/C(C)C(OC)CC(O)/C=C/C(C)C(C(C)C(OC)C(C)CCC(=O)C(C)C(C/C=C/N(C)C=O)OC)OC(=O)/C=C/C=C(\C)CC(OC)C(OC)C2=CC(=O)O[C@@H](C(C)C(OC)C1)[C@H]2O (some centres not stated) in this test.
yes

Look up the recorded call for `O=c1c2cc(Cl)cc(Cl)c2oc2nc3n(c(=O)c12)CCCS3` in this test.
no

Look up the recorded call for CC(N)(CC(O)(C(F)(F)Cl)C(F)(F)Cl)C(=O)O (configuration not stated) in this test.
no

Sourced from ChEMBL document CHEMBL1201862
